Origin of measurements: ChEMBL document CHEMBL3425423

assay.summary: Oral bioavailability in C57BL/6 mouse at 2 mg/kg
Format: ADME, organism-based
assay.setup: in vivo
Item-by-item account of bioavailability
Give the quantity in %, number only.

For orientation, consider the following solved cases.
>  <record.smiles>
O=C1COc2cc(Cl)c(CNC34CCC(C[C@]5(O)Cn6c(=O)ccc7ncc(F)c5c76)(CC3)OC4)nc2N1

>  <readout.unit>
%

>  <bioavailability>
51

$$$$
>  <record.smiles>
O=c1ccc2ncc(F)c3c2n1C[C@@]3(O)CC12CCC(NCc3cc4c(cn3)OCCO4)(CC1)CO2

>  <readout.unit>
%

>  <bioavailability>
60

$$$$

Please turn your attention to the following entry.
stdin: Field request: bioavailability | item: "O=C1COc2cc(F)c(CNC34CCC(C[C@]5(O)Cn6c(=O)ccc7ncc(F)c5c76)(CC3)OC4)nc2N1"
stdout: 39
